# measurement.protocol: Cytotoxicity against human HT29-AK cells after 48 hrs by MTT assay
# Type: functional, cell-based
Reported IC50 values are given for each entry in this list.
measure.name: IC50

COc1ccc(Nc2nc(-c3cccc(F)c3)nc3ccc(F)cc23)cc1 :: 42.3 µM
Fc1cccc(-c2nc(Nc3cccc(Cl)c3)c3cc(F)ccc3n2)c1 :: > 50 µM
Fc1cccc(-c2nc(Nc3ccccc3)c3ccccc3n2)c1 :: > 50 µM
Cc1ccccc1Nc1nc(-c2cccc(F)c2)nc2ccc(F)cc12 :: > 50 µM
Fc1cccc(-c2nc(Nc3ccccc3)c3cc(F)ccc3n2)c1 :: 48.3 µM
Fc1ccc(Nc2nc(-c3cccc(F)c3)nc3ccc(F)cc23)cc1 :: > 50 µM
Fc1cccc(-c2nc(Nc3ccccc3Cl)c3cc(F)ccc3n2)c1 :: > 50 µM
Fc1cccc(-c2nc(Nc3ccccc3F)c3cc(F)ccc3n2)c1 :: > 50 µM
Oc1ccccc1Nc1nc(-c2cccc(F)c2)nc2ccc(F)cc12 :: > 50 µM
Fc1cccc(-c2nc(Nc3ccccc3Br)c3cc(F)ccc3n2)c1 :: > 50 µM
Nc1ccc(Nc2nc(-c3cccc(F)c3)nc3ccc(F)cc23)cc1 :: > 50 µM
